- Tested on: 454973-116-R2-J3-PDC complex spheroid viability;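 further: spheroids exposed to drugs for seven days before measurement; percent viability relative to DMSO vehicle control wells taken as 100%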
- PROCEDURE_TEXT: Anticancer human tumor 454973-116-R2-J3-PDC patient-derived pancreatic carcinoma cell line growth inhibition [POLQ]
- MEASUREMENT_CONDITIONS: second compound 0.316 µM; first compound 0.01 µM; active compounds read low
REPORTED_METRIC: viability, T/C (%)

COMPOUND	ASSAY_SYSTEM	NUMBER
Cn1ncnc1[C@H]1c2n[nH]c(=O)c3cc(F)cc(c23)N[C@@H]1c1ccc(F)cc1 + Nc1ccc(C#CCN(C(=O)Cc2ncc(C(F)(F)F)cc2C(F)(F)F)c2ccc(F)cc2)nn1	454973-116-R2-J3-PDC complex spheroid viability	92.3
C=CCn1c(=O)c2cnc(Nc3ccc(N4CCN(C)CC4)cc3)nc2n1-c1cccc(C(C)(C)O)n1 + COC1C(OC(N)=O)C(O)C(Oc2ccc3c(O)c(NC(=O)c4ccc(O)c(CC=C(C)C)c4)c(=O)oc3c2C)OC1(C)C	454973-116-R2-J3-PDC complex spheroid viability	104
COc1cccc(OCCCN)c1-c1cc(Nc2cnc(C#N)cn2)n[nH]1 + Nc1ccc(C#CCN(C(=O)Cc2ncc(C(F)(F)F)cc2C(F)(F)F)c2ccc(F)cc2)nn1	454973-116-R2-J3-PDC complex spheroid viability	67.2
Cn1ncnc1[C@H]1c2n[nH]c(=O)c3cc(F)cc(c23)N[C@@H]1c1ccc(F)cc1 + Cc1cccc(N(C)C(=O)C2C(O)CCN2c2nc(C)cc(C(F)(F)F)c2C#N)c1	454973-116-R2-J3-PDC complex spheroid viability	97.6
CC[C@@]1(O)C(=O)OCc2c1cc1n(c2=O)Cc2cc3c(CN(C)C)c(O)ccc3nc2-1 + Cc1cccc(N(C)C(=O)C2C(O)CCN2c2nc(C)cc(C(F)(F)F)c2C#N)c1	454973-116-R2-J3-PDC complex spheroid viability	83.9
CC[C@@]1(O)C(=O)OCc2c1cc1n(c2=O)Cc2cc3c(CN(C)C)c(O)ccc3nc2-1 + COC1C(OC(N)=O)C(O)C(Oc2ccc3c(O)c(NC(=O)c4ccc(O)c(CC=C(C)C)c4)c(=O)oc3c2C)OC1(C)C	454973-116-R2-J3-PDC complex spheroid viability	88.9
COc1cccc(OCCCN)c1-c1cc(Nc2cnc(C#N)cn2)n[nH]1 + Cc1cccc(N(C)C(=O)C2C(O)CCN2c2nc(C)cc(C(F)(F)F)c2C#N)c1	454973-116-R2-J3-PDC complex spheroid viability	77.6
CCc1c2c(nc3ccc(O)cc13)-c1cc3c(c(=O)n1C2)COC(=O)[C@]3(O)CC + COC1C(OC(N)=O)C(O)C(Oc2ccc3c(O)c(NC(=O)c4ccc(O)c(CC=C(C)C)c4)c(=O)oc3c2C)OC1(C)C	454973-116-R2-J3-PDC complex spheroid viability	15.8
COc1cccc(OCCCN)c1-c1cc(Nc2cnc(C#N)cn2)n[nH]1 + COC1C(OC(N)=O)C(O)C(Oc2ccc3c(O)c(NC(=O)c4ccc(O)c(CC=C(C)C)c4)c(=O)oc3c2C)OC1(C)C	454973-116-R2-J3-PDC complex spheroid viability	70.8
CCc1c2c(nc3ccc(O)cc13)-c1cc3c(c(=O)n1C2)COC(=O)[C@]3(O)CC + Cc1cccc(N(C)C(=O)C2C(O)CCN2c2nc(C)cc(C(F)(F)F)c2C#N)c1	454973-116-R2-J3-PDC complex spheroid viability	17.2
CCc1c2c(nc3ccc(O)cc13)-c1cc3c(c(=O)n1C2)COC(=O)[C@]3(O)CC + Nc1ccc(C#CCN(C(=O)Cc2ncc(C(F)(F)F)cc2C(F)(F)F)c2ccc(F)cc2)nn1	454973-116-R2-J3-PDC complex spheroid viability	11.3
CC[C@@]1(O)C(=O)OCc2c1cc1n(c2=O)Cc2cc3c(CN(C)C)c(O)ccc3nc2-1 + Nc1ccc(C#CCN(C(=O)Cc2ncc(C(F)(F)F)cc2C(F)(F)F)c2ccc(F)cc2)nn1	454973-116-R2-J3-PDC complex spheroid viability	71.2
Cn1ncnc1[C@H]1c2n[nH]c(=O)c3cc(F)cc(c23)N[C@@H]1c1ccc(F)cc1 + COC1C(OC(N)=O)C(O)C(Oc2ccc3c(O)c(NC(=O)c4ccc(O)c(CC=C(C)C)c4)c(=O)oc3c2C)OC1(C)C	454973-116-R2-J3-PDC complex spheroid viability	100
C=CCn1c(=O)c2cnc(Nc3ccc(N4CCN(C)CC4)cc3)nc2n1-c1cccc(C(C)(C)O)n1 + Nc1ccc(C#CCN(C(=O)Cc2ncc(C(F)(F)F)cc2C(F)(F)F)c2ccc(F)cc2)nn1	454973-116-R2-J3-PDC complex spheroid viability	109
C=CCn1c(=O)c2cnc(Nc3ccc(N4CCN(C)CC4)cc3)nc2n1-c1cccc(C(C)(C)O)n1 + Cc1cccc(N(C)C(=O)C2C(O)CCN2c2nc(C)cc(C(F)(F)F)c2C#N)c1	454973-116-R2-J3-PDC complex spheroid viability	98.9
